Where do the numbers come from? From the NIST ThermoML archive (doi:10.1016/j.jct.2008.12.018).

experiment: activity coefficient (dimensionless); of the first substance listed, at infinite dilution; xn = mol fraction of the nth substance listed; details: 338.15 K; Liquid; Chromatography; x1 = 0
Lab note: anything with activity coefficient below 30 is marked true; values at 30 or higher are marked false.

Confirm or reject: activity coefficient of CCCCCCCC [octane] + CCCCn1cc[n+](C)c1.N#C[S-] lies strictly below 30
false

Please indicate whether the reported activity coefficient of Cc1ccccc1C [1,2-dimethylbenzene] + CCCCn1cc[n+](C)c1.N#C[S-] is strictly below 30.
true

Please indicate whether the reported activity coefficient of CCCCO [butan-1-ol] + CCCCn1cc[n+](C)c1.N#C[S-] is strictly below 30.
true

Regarding C1CCCCC1 [cyclohexane] + CCCCn1cc[n+](C)c1.N#C[S-] , kindly confirm whether its activity coefficient is beneath 30.
false

Bench note: check whether C=CCCCCC [1-heptene] + CCCCn1cc[n+](C)c1.N#C[S-] shows activity coefficient below 30
false

Report whether reported activity coefficient is lower than 30 (strictly) for C#CCCCCCC [1-octyne] + CCCCn1cc[n+](C)c1.N#C[S-]
true

hey, is activity coefficient for CCCCCO [pentan-1-ol] + CCCCn1cc[n+](C)c1.N#C[S-] lower than 30 or not?
true

# TODO verify activity coefficient < 30 strictly for this compound: CCc1ccccc1 [ethylbenzene] + CCCCn1cc[n+](C)c1.N#C[S-]
true

Does the reported activity coefficient of C#CCCCC [1-hexyne] + CCCCn1cc[n+](C)c1.N#C[S-] stay below 30?
true

Hello, is activity coefficient of the following compound strictly smaller than 30? CCCCCCCCCC [decane] + CCCCn1cc[n+](C)c1.N#C[S-]
false

Check if activity coefficient falls below 30 for c1ccsc1 [thiophene] + CCCCn1cc[n+](C)c1.N#C[S-] .
true

hey, is activity coefficient for c1ccccc1 [benzene] + CCCCn1cc[n+](C)c1.N#C[S-] lower than 30 or not?
true

Regarding CCO [ethanol] + CCCCn1cc[n+](C)c1.N#C[S-] , kindly confirm whether its activity coefficient is beneath 30.
true

Threshold test, activity coefficient < 30: CCCCCC [hexane] + CCCCn1cc[n+](C)c1.N#C[S-]
false

Please indicate whether the reported activity coefficient of Cc1ccccc1 [toluene] + CCCCn1cc[n+](C)c1.N#C[S-] is strictly below 30.
true

Is the reported activity coefficient for C=CCCC [1-pentene] + CCCCn1cc[n+](C)c1.N#C[S-] strictly below 30?
false

For this compound, is activity coefficient lower than 30? C1CCCC1 [cyclopentane] + CCCCn1cc[n+](C)c1.N#C[S-]
true

Lab log: compare recorded activity coefficient with 30; is it strictly lower for C=CCCCCCC [oct-1-ene] + CCCCn1cc[n+](C)c1.N#C[S-] ?
false

Dear colleague, could you confirm whether activity coefficient of CO [methanol] + CCCCn1cc[n+](C)c1.N#C[S-] falls below 30? Thanks.
true

# strict comparison: is reported activity coefficient < 30? input = CCCCCCCCC [nonane] + CCCCn1cc[n+](C)c1.N#C[S-]
false

Regarding C1CCCCCCC1 [cyclooctane] + CCCCn1cc[n+](C)c1.N#C[S-] , kindly confirm whether its activity coefficient is beneath 30.
false

Report whether reported activity coefficient is lower than 30 (strictly) for Cc1cccc(C)c1 [1,3-dimethylbenzene] + CCCCn1cc[n+](C)c1.N#C[S-]
true

is_below(activity coefficient, 30) for CCCO [propan-1-ol] + CCCCn1cc[n+](C)c1.N#C[S-] ?
true

I'd appreciate it if you could check whether C1CCCCCC1 [cycloheptane] + CCCCn1cc[n+](C)c1.N#C[S-] has activity coefficient smaller than 30.
false

Threshold test, activity coefficient < 30: O [water] + CCCCn1cc[n+](C)c1.N#C[S-]
true

# strict comparison: is reported activity coefficient < 30? input = COC(C)(C)C [2-methoxy-2-methylpropane] + CCCCn1cc[n+](C)c1.N#C[S-]
true

Item Cc1ccc(C)cc1 [1,4-dimethylbenzene] + CCCCn1cc[n+](C)c1.N#C[S-] : activity coefficient beneath 30, strictly?
true

Please check: activity coefficient for C=CCCCC [hex-1-ene] + CCCCn1cc[n+](C)c1.N#C[S-] , strictly under 30 or not?
false

Lab log: compare recorded activity coefficient with 30; is it strictly lower for C#CCCCCC [1-heptyne] + CCCCn1cc[n+](C)c1.N#C[S-] ?
true

Say whether its activity coefficient is strictly beneath 30. Entry: CCCCCCC [heptane] + CCCCn1cc[n+](C)c1.N#C[S-]
false

For this compound, is activity coefficient lower than 30? C#CCCC [1-pentyne] + CCCCn1cc[n+](C)c1.N#C[S-]
true
